Data provenance: ChEMBL document CHEMBL2434947

# study_system: Muscarinic acetylcholine receptor M4 (Homo sapiens) (UniProt P08173)
# Sequence (P08173 whole entry): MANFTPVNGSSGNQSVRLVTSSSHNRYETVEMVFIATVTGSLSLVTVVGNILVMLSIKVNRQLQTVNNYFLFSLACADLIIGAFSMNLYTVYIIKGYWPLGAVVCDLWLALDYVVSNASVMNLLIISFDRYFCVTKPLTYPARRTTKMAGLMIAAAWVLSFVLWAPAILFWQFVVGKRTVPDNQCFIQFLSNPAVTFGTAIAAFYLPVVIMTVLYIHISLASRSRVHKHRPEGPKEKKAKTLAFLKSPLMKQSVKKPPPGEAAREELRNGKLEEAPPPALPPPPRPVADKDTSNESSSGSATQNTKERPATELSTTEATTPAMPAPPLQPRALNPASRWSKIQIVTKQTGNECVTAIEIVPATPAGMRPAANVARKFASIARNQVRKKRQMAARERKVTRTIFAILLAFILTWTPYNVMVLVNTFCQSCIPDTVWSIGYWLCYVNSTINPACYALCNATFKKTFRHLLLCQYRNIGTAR
# experiment: Positive allosteric modulation of human muscarinic M4 receptor expressed in CHO Flp-In cells assessed as stimulation of acetylcholine-induced ERK1/2 phosphorylation incubated under green light condition by fluorescence assay relative to control
# Format: cell-based
Active and inactive are the calls of the source. The rule behind the calls is not given here.
result_type: Emax

- COc1cccc(CNC(=O)c2sc3nc(C)cc(C)c3c2N)c1: 92%
- COc1ccc(CNC(=O)c2sc3nc(C)cc(C)c3c2N)cc1OC.Cl: inactive
- Cc1cc(C)c2c(N)c(C(=O)NCc3cc(F)cc(F)c3F)sc2n1: 85%
- COc1ccc(CNC(=O)c2sc3nc(C)cc(C)c3c2N)c(F)c1F: 89%
- Cc1cc(C)c2c(N)c(C(=O)NCc3ccc(F)cc3)sc2n1: 98%
- COc1ccccc1CNC(=O)c1sc2nc(C)cc(C)c2c1N.Cl: inactive
- Cc1cc(C)c2c(N)c(C(=O)NCc3ccccc3F)sc2n1: 92%
- Cc1cc(C)c2c(N)c(C(=O)NCc3cccc(F)c3F)sc2n1: 91%
- COc1ccc(CNC(=O)c2sc3nc(C)cc(C)c3c2N)cc1: 85%
- COc1cc(CNC(=O)c2sc3nc(C)cc(C)c3c2N)cc(OC)c1OC.Cl: inactive
- COc1cc(F)c(CNC(=O)c2sc3nc(C)cc(C)c3c2N)cc1F.Cl: inactive
